EXPERIMENTAL_DETAILS: Ratio of drug level in epithelial lining fluid to plasma in lung transplant recipient invasive aspergillosis patient at 150 mg, iv QD for 4 consecutive days measured after 24 hrs post last dose
Assay type: ADME, organism-based
CONDITION_NOTES: human
Numbered stars: 1 amine (or outer) side, 2 acyl side, 3 side chain; on linkers, the order of the positions; unused ones are H or OH. Bridge positions count the residues as written; N and C are the ends. Square brackets hold non-standard residues; d marks the D form. Peptide text beside a SMILES is read from it. * marks the point of attachment. hTyr(3S-OH,4S-OH,3'-OSO3H) = N[C@H](C(=O)O)[C@H](O)[C@@H](O)c1ccc(O)c(OS(=O)(=O)O)c1; Orn(4R-OH,5R-OH) = O=C([C@H](C[C@@H](O)[C@@H](O)N[*:3])N[*:1])[*:2]; Pro(3S-OH,4S-Me) = C[C@H]1CN[C@H](C(=O)O)[C@H]1O; X1 = CCCCCOc1ccc(-c2cc(-c3ccc(C(=O)*)cc3)no2)cc1; Gln(3R-OH) = NC(=O)C[C@@H](O)[C@H](N)C(=O)O; Hyp = O=C(O)[C@@H]1C[C@@H](O)CN1
MEASUREMENT_LABEL: Kp at 24 h

molecule="CCCCCOc1ccc(-c2cc(-c3ccc(C(=O)N[C@H]4C[C@@H](O)[C@@H](O)NC(=O)[C@@H]5[C@@H](O)[C@@H](C)CN5C(=O)[C@H]([C@H](O)CC(N)=O)NC(=O)[C@H]([C@H](O)[C@@H](O)c5ccc(O)c(OS(=O)(=O)O)c5)NC(=O)[C@@H]5C[C@@H](O)CN5C(=O)[C@H]([C@@H](C)O)NC4=O)cc3)no2)cc1 [MICAFUNGIN] (X1-[Orn(4R-OH,5R-OH)]T[Hyp][hTyr(3S-OH,4S-OH,3'-OSO3H)][Gln(3R-OH)][Pro(3S-OH,4S-Me)]; lactam 1-C)" measurement_label="Kp at 24 h" measurement=1.1

====

EXPERIMENTAL_DETAILS: Cmax in alveolar cells of lung transplant recipient invasive aspergillosis patient at 150 mg, iv QD for 4 consecutive days by HPLC
Assay type: ADME, organism-based, Pneumocyte
Design: dose 150 mg, route intravenous
CONDITION_NOTES: human
Numbered stars: 1 amine (or outer) side, 2 acyl side, 3 side chain; on linkers, the order of the positions; unused ones are H or OH. Bridge positions count the residues as written; N and C are the ends. Square brackets hold non-standard residues; d marks the D form. Peptide text beside a SMILES is read from it. * marks the point of attachment. hTyr(3S-OH,4S-OH,3'-OSO3H) = N[C@H](C(=O)O)[C@H](O)[C@@H](O)c1ccc(O)c(OS(=O)(=O)O)c1; Orn(4R-OH,5R-OH) = O=C([C@H](C[C@@H](O)[C@@H](O)N[*:3])N[*:1])[*:2]; Pro(3S-OH,4S-Me) = C[C@H]1CN[C@H](C(=O)O)[C@H]1O; X1 = CCCCCOc1ccc(-c2cc(-c3ccc(C(=O)*)cc3)no2)cc1; Gln(3R-OH) = NC(=O)C[C@@H](O)[C@H](N)C(=O)O; Hyp = O=C(O)[C@@H]1C[C@@H](O)CN1
MEASUREMENT_LABEL: Cmax (ng/mL)

compound="CCCCCOc1ccc(-c2cc(-c3ccc(C(=O)N[C@H]4C[C@@H](O)[C@@H](O)NC(=O)[C@@H]5[C@@H](O)[C@@H](C)CN5C(=O)[C@H]([C@H](O)CC(N)=O)NC(=O)[C@H]([C@H](O)[C@@H](O)c5ccc(O)c(OS(=O)(=O)O)c5)NC(=O)[C@@H]5C[C@@H](O)CN5C(=O)[C@H]([C@@H](C)O)NC4=O)cc3)no2)cc1 [MICAFUNGIN] (X1-[Orn(4R-OH,5R-OH)]T[Hyp][hTyr(3S-OH,4S-OH,3'-OSO3H)][Gln(3R-OH)][Pro(3S-OH,4S-Me)]; lactam 1-C)" measurement=17400

====

EXPERIMENTAL_DETAILS: Drug level in epithelial lining fluid of lung transplant recipient invasive aspergillosis patient at 150 mg, iv QD for 4 consecutive days measured after 8 hrs post last dose by HPLC
Type: ADME, organism-based
CONDITION_NOTES: human, read-out: Drug uptake
Numbered stars: 1 amine (or outer) side, 2 acyl side, 3 side chain; on linkers, the order of the positions; unused ones are H or OH. Bridge positions count the residues as written; N and C are the ends. Square brackets hold non-standard residues; d marks the D form. Peptide text beside a SMILES is read from it. * marks the point of attachment. hTyr(3S-OH,4S-OH,3'-OSO3H) = N[C@H](C(=O)O)[C@H](O)[C@@H](O)c1ccc(O)c(OS(=O)(=O)O)c1; Orn(4R-OH,5R-OH) = O=C([C@H](C[C@@H](O)[C@@H](O)N[*:3])N[*:1])[*:2]; Pro(3S-OH,4S-Me) = C[C@H]1CN[C@H](C(=O)O)[C@H]1O; X1 = CCCCCOc1ccc(-c2cc(-c3ccc(C(=O)*)cc3)no2)cc1; Gln(3R-OH) = NC(=O)C[C@@H](O)[C@H](N)C(=O)O; Hyp = O=C(O)[C@@H]1C[C@@H](O)CN1
MEASUREMENT_LABEL: concentration at 8 h (ng/mL)

compound="CCCCCOc1ccc(-c2cc(-c3ccc(C(=O)N[C@H]4C[C@@H](O)[C@@H](O)NC(=O)[C@@H]5[C@@H](O)[C@@H](C)CN5C(=O)[C@H]([C@H](O)CC(N)=O)NC(=O)[C@H]([C@H](O)[C@@H](O)c5ccc(O)c(OS(=O)(=O)O)c5)NC(=O)[C@@H]5C[C@@H](O)CN5C(=O)[C@H]([C@@H](C)O)NC4=O)cc3)no2)cc1 [MICAFUNGIN] (X1-[Orn(4R-OH,5R-OH)]T[Hyp][hTyr(3S-OH,4S-OH,3'-OSO3H)][Gln(3R-OH)][Pro(3S-OH,4S-Me)]; lactam 1-C)" measurement=50

====

EXPERIMENTAL_DETAILS: Ratio of drug level in epithelial lining fluid to plasma in lung transplant recipient invasive aspergillosis patient at 150 mg, iv QD for 4 consecutive days measured after 8 hrs post last dose
Type: ADME, organism-based
CONDITION_NOTES: human
Numbered stars: 1 amine (or outer) side, 2 acyl side, 3 side chain; on linkers, the order of the positions; unused ones are H or OH. Bridge positions count the residues as written; N and C are the ends. Square brackets hold non-standard residues; d marks the D form. Peptide text beside a SMILES is read from it. * marks the point of attachment. hTyr(3S-OH,4S-OH,3'-OSO3H) = N[C@H](C(=O)O)[C@H](O)[C@@H](O)c1ccc(O)c(OS(=O)(=O)O)c1; Orn(4R-OH,5R-OH) = O=C([C@H](C[C@@H](O)[C@@H](O)N[*:3])N[*:1])[*:2]; Pro(3S-OH,4S-Me) = C[C@H]1CN[C@H](C(=O)O)[C@H]1O; X1 = CCCCCOc1ccc(-c2cc(-c3ccc(C(=O)*)cc3)no2)cc1; Gln(3R-OH) = NC(=O)C[C@@H](O)[C@H](N)C(=O)O; Hyp = O=C(O)[C@@H]1C[C@@H](O)CN1
MEASUREMENT_LABEL: Kp at 8 h

compound="CCCCCOc1ccc(-c2cc(-c3ccc(C(=O)N[C@H]4C[C@@H](O)[C@@H](O)NC(=O)[C@@H]5[C@@H](O)[C@@H](C)CN5C(=O)[C@H]([C@H](O)CC(N)=O)NC(=O)[C@H]([C@H](O)[C@@H](O)c5ccc(O)c(OS(=O)(=O)O)c5)NC(=O)[C@@H]5C[C@@H](O)CN5C(=O)[C@H]([C@@H](C)O)NC4=O)cc3)no2)cc1 [MICAFUNGIN] (X1-[Orn(4R-OH,5R-OH)]T[Hyp][hTyr(3S-OH,4S-OH,3'-OSO3H)][Gln(3R-OH)][Pro(3S-OH,4S-Me)]; lactam 1-C)" measurement_label="Kp at 8 h" measurement=0.01

====

EXPERIMENTAL_DETAILS: Tmax in lung transplant recipient invasive aspergillosis patient plasma at 150 mg, iv QD for 4 consecutive days by HPLC
Type: ADME, organism-based
CONDITION_NOTES: human
Numbered stars: 1 amine (or outer) side, 2 acyl side, 3 side chain; on linkers, the order of the positions; unused ones are H or OH. Bridge positions count the residues as written; N and C are the ends. Square brackets hold non-standard residues; d marks the D form. Peptide text beside a SMILES is read from it. * marks the point of attachment. hTyr(3S-OH,4S-OH,3'-OSO3H) = N[C@H](C(=O)O)[C@H](O)[C@@H](O)c1ccc(O)c(OS(=O)(=O)O)c1; Orn(4R-OH,5R-OH) = O=C([C@H](C[C@@H](O)[C@@H](O)N[*:3])N[*:1])[*:2]; Pro(3S-OH,4S-Me) = C[C@H]1CN[C@H](C(=O)O)[C@H]1O; X1 = CCCCCOc1ccc(-c2cc(-c3ccc(C(=O)*)cc3)no2)cc1; Gln(3R-OH) = NC(=O)C[C@@H](O)[C@H](N)C(=O)O; Hyp = O=C(O)[C@@H]1C[C@@H](O)CN1
MEASUREMENT_LABEL: Tmax (h)

compound="CCCCCOc1ccc(-c2cc(-c3ccc(C(=O)N[C@H]4C[C@@H](O)[C@@H](O)NC(=O)[C@@H]5[C@@H](O)[C@@H](C)CN5C(=O)[C@H]([C@H](O)CC(N)=O)NC(=O)[C@H]([C@H](O)[C@@H](O)c5ccc(O)c(OS(=O)(=O)O)c5)NC(=O)[C@@H]5C[C@@H](O)CN5C(=O)[C@H]([C@@H](C)O)NC4=O)cc3)no2)cc1 [MICAFUNGIN] (X1-[Orn(4R-OH,5R-OH)]T[Hyp][hTyr(3S-OH,4S-OH,3'-OSO3H)][Gln(3R-OH)][Pro(3S-OH,4S-Me)]; lactam 1-C)" measurement=4
